- target.entity: RARβ2 (Homo sapiens, UniProt P10826)
- Construct: expressed in transfected cells
- Sequence (P10826 1-448 isoform P10826-2): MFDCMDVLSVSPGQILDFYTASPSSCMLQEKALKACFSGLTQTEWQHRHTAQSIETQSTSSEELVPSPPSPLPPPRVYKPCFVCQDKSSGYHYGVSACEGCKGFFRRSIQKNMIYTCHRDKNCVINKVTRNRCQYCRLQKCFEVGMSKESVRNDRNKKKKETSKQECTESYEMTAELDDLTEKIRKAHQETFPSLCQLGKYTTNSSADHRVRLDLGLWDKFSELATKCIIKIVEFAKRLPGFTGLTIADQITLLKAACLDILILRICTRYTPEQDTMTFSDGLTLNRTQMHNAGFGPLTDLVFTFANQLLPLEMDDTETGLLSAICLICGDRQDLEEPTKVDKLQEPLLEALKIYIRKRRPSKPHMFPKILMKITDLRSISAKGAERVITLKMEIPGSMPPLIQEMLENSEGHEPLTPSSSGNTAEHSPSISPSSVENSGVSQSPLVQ
- assay.protocol: Receptor Selection and Amplification Technology (R-SAT) functional receptor assay
- Type: cell-based
- experimental.parameters: Table 1, read-out: pEC50 (converted)
Output satisfied for records whose EC50 is lower than 60 nM, not satisfied for records at or above 60 nM.

>>> assigned_label("CCCCC(CC)COc1nc(-c2ccc(C(=O)O)cc2)sc1C (centres unmarked)")
"not satisfied"
>>> assigned_label("CCCCCCCc1ccc(-c2ccc(C(=O)O)cc2F)cc1")
"satisfied"
>>> assigned_label("Cc1sc(-c2ccc(C(=O)O)cc2)nc1OCC(=O)NC1CCCCCC1")
"not satisfied"
>>> assigned_label("CCCCCCCc1ccc(-c2ccc(C(=O)O)cc2)cc1")
"satisfied"
>>> assigned_label("CCCCCCCCc1ccc(-c2ccc(C(=O)C(=O)O)cc2)cc1")
"not satisfied"
>>> assigned_label("CCCOCCOc1nc(-c2ccc(C(=O)O)cc2)sc1C")
"not satisfied"
>>> assigned_label("CCCCCCCc1ccc(-c2ccc(C(=O)O)c(F)c2)cc1")
"not satisfied"
>>> assigned_label("CCCCOCCOc1ccc(-c2ccc(C(=O)O)cc2)cc1")
"satisfied"
